target_system: T1, recombinant human TIGIT (human, UniProt Q495A1 22-141, limits assumed)
T1 construct: recombinant human TIGIT used in Carterra SPR; also called hTIGIT
T1 sequence (looked up): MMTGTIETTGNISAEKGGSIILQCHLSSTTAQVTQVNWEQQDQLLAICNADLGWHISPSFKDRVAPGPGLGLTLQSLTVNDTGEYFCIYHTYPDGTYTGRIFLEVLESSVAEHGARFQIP
method_notes: SPR Carterra, average
outcome_measure: koff (s⁻¹)

[[record]]
binder = "TIGIT-SC206 (Fc fusion, VHH-Fc fusion in assay) VHH: EVQLVESGGGLVQPGGSLRLSCAASGFLFDSYVMGWFRQAPGKEREFVAAIWRSGTLKAYADSVKGRFTISADNSKNTAYLQMNGLKPEDTAVYYCAGVGTDYGDYLFNYWGQGTLVTVSS"
outcome_measure = "koff"
quantitative_readout = 0.0157

[[record]]
binder = "TIGIT-SC183 (Fc fusion, VHH-Fc fusion in assay) VHH: EVQLVESGGGLVQPGGSLRLSCAASGFAFGDSWMGWFRQAPGKEREWVASVLRGGYTWYADSVKGRFTISADNSKNTAYLQMNSLKPEDTAVYYCAKDRSYSFDYWGQGTLVTVSS"
outcome_measure = "koff"
quantitative_readout = 0.00495

[[record]]
binder = "TIGIT-SC78 (Fc fusion, VHH-Fc fusion in assay) VHH: EVQLVESGGGLVQPGGSLRLSCAASGLTLNDYAMGWFRQAPGKERELVAWIARYDGSTLYADSVKGRFTISADNSKNTAYLQMNSLKPEDTAVYYCARVDWALNAAPFDYWGQGTLVTVSS"
outcome_measure = "koff"
quantitative_readout = 0.000493

[[record]]
binder = "TIGIT-SC118 (Fc fusion, VHH-Fc fusion in assay) VHH: EVQLVESGGGLVQPGGSLRLSCAASGRTFSFMGWFRQAPGKEREWVASVLRGGYTWYADSVKGRFTISADNSKNTAYLQMNSLKPEDTAVYYCAKDGGWFDPWGQGTLVTVSS"
outcome_measure = "koff"
quantitative_readout = 0.00252

[[record]]
binder = "TIGIT-SC155 (Fc fusion, VHH-Fc fusion in assay) VHH: EVQLVESGGGLVQPGGSLRLSCAASGNTFSGGFMGWFRQAPGKEREWVASVLRGGYTWYADSVKGRFTISADNSKNTAYLQMNSLKPEDTAVYYCAGDYRGFEMAFDPWGQGTLVTVSS"
outcome_measure = "koff"
quantitative_readout = 0.00647

[[record]]
binder = "TIGIT-SC163 (Fc fusion, VHH-Fc fusion in assay) VHH: EVQLVESGGGLVQPGGSLRLSCAASGFTFDRSWMGWFRQAPGKEREWVASVLRGGYTWYADSVKGRFTISADNSKNTAYLQMNSLKPEDTAVYYCATDKRGPHPDYWGQGTLVTVSS"
outcome_measure = "koff"
quantitative_readout = 0.00269

[[record]]
binder = "TIGIT-SC136 (Fc fusion, VHH-Fc fusion in assay) VHH: EVQLVESGGGLVQPGGSLRLSCAASGFTLENNMMGWFRQAPGKEREFVAAISRSGTLKAYADSVKGRFTISADNSKNTAYLQMNSLKPEDTAVYYCARGGELTTFYFGYWGQGTLVTVSS"
outcome_measure = "koff"
quantitative_readout = 0.00254

[[record]]
binder = "TIGIT-SC76 (Fc fusion, VHH-Fc fusion in assay) VHH: EVQLVESGGGLVQPGGSLRLSCAASGFTFSDYAMGWFRQAPGKERELVARIGHDGSTDYADSVKGRFTISADNSKNTAYLQMNSLKPEDTAVYYCLGGLDPWGQGTLVTVSS"
outcome_measure = "koff"
quantitative_readout = 0.00717

[[record]]
binder = "TIGIT-SC18 (Fc fusion, VHH-Fc fusion in assay) VHH: EVQLVESGGGLVQPGGSLRLSCAASGFSLDYYAMGWFRQAPGKEREVVAIIDTNGDNTLYADSVKGRFTISADNSKNTAYLQMNSLKPEDTAVYYCARGRGYGDYVGAYWGQGTLVTVSS"
outcome_measure = "koff"
quantitative_readout = 0.00225

[[record]]
binder = "TIGIT-SC94 (Fc fusion, VHH-Fc fusion in assay) VHH: EVQLVESGGGLVQPGGSLRLSCAASGSSFSAYAMGWFRQAPGKEREFVSLINWSSGKTIYADSVKGRFTISADNSKNTAYLQMNSLKPEDTAVYYCARVRIFNHVHRPSYYFDYWGQGTLVTVSS"
outcome_measure = "koff"
quantitative_readout = 0.027

[[record]]
binder = "TIGIT-SC112 (Fc fusion, VHH-Fc fusion in assay) VHH: EVQLVESGGGLVQPGGSLRLSCAASGRTLRRYVMGWFRQAPGKERELVAAIDWSGGSALYADSVKGRFTISADNSKNTAYLQMNSLKPEDTAVYYCTWGDGYNLGAFDIWGQGTLVTVSS"
outcome_measure = "koff"
quantitative_readout = 0.00393

[[record]]
binder = "TIGIT-SC96 (Fc fusion, VHH-Fc fusion in assay) VHH: EVQLVESGGGLVQPGGSLRLSCAASGMTTIGPMGWFRQAPGKEREFVAAINWSGSSTVYADSVKGRFTISADNSKNTAYLQMNSLKPEDTAVYYCVTYSAYDFRNAWGQGTLVTVSS"
outcome_measure = "koff"
quantitative_readout = 0.0176

[[record]]
binder = "TIGIT-SC154 (Fc fusion, VHH-Fc fusion in assay) VHH: EVQLVESGGGLVQPGGSLRLSCAASGFAFSSDWMGWFRQAPGKEREWVASVLRGGYTWYADSVKGRFTISADNSKNTAYLQMNSLKPEDTAVYYCAGDYRGFEMAFDPWGQGTLVTVSS"
outcome_measure = "koff"
quantitative_readout = 0.00219

[[record]]
binder = "TIGIT-SC142 (Fc fusion, VHH-Fc fusion in assay) VHH: EVQLVESGGGLVQPGGSLRLSCAASGFSFDRWAMGWFRQAPGKEREFVAAIGWSGNLKAYADSVKGRFTISADNSKNTAYLQMNSLKPEDTAVYYCASGDGYSMDYFDPWGQGTLVTVSS"
outcome_measure = "koff"
quantitative_readout = 0.0213

[[record]]
binder = "TIGIT-SC132 (Fc fusion, VHH-Fc fusion in assay) VHH: EVQLVESGGGLVQPGGSLRLSCAASGFTLENNMMGWFRQAPGKEREFVAAISASGTLRAYADSVKGRFTISADNSKNTAYLQMNSLKPEDTAVYYCATWRPNRGRYYDWYFDLWGQGTLVTVSS"
outcome_measure = "koff"
quantitative_readout = 0.00347

